- System: HCC-2998 colon
- Experimental protocol: NCI tumour cell line growth inhibition, 48 h
Measured quantity: TGI

1) CC(C)=CCC/C(C)=C\CC/C(C)=C/CO	43.1 µM
2) N#C/C(=C/c1ccco1)C(=O)c1ccccc1	> 100 µM
3) COc1ccc(N2C(=O)C3c4[nH]c5ccc(C)cc5c4C4CCC(c5ccccc5)CC4C3C2=O)cc1 (centres undefined)	> 100 µM
4) Clc1ccc(Nc2nn3c(CCCCCCCCc4nnc5sc(Nc6ccc(Cl)cc6)nn45)nnc3s2)cc1	> 100 µM

----------
We begin with a simple list: items and their reported TGI.
- Tested on: HS 578T breast
- Experimental protocol: NCI tumour cell line growth inhibition, 48 h
Measured quantity: TGI

1. COC(=O)C1CCC(NC(=O)c2csc([C@@H](C[C@H](C(C)C)N(C)C(=O)[C@@H](NC(=O)[C@H]3CCCCN3C)C(C)C)OC(C)=O)n2)CC1 (some centres undefined)	> 33.3 µM
2. CCOC(=O)C1C(=O)CC(O)(c2ccccc2)C(C(=O)OCC)C1c1ccc(N(C)C)cc1 (centres undefined)	23.1 µM
3. CCOc1ccc(N=NC2C(=O)N(C(=O)CC(=O)Nc3ccc(C)cc3)N=C2C)cc1 (centres undefined)	40.1 µM
4. Cc1cc(C)c(C2CC(O)C(CO)O2)cc1C (centres undefined)	> 100 µM
5. Cc1ccc(NCCN2CCCCC2)c2c(=O)c3ccccc3sc12	5.17 µM
6. CC(=O)NC(Cc1cnc[nH]1)C(=O)N1CCCC1C(N)=O (centres undefined)	> 100 µM
7. CC(NC(=O)C(Cc1ccc(OC(=O)c2ccccc2)cc1)NC(=O)OC(C)(C)C)C(=O)NCC(=O)NC(Cc1ccccc1)NC(=O)OCc1ccccc1 (centres undefined)	> 100 µM
8. CNN1C(=O)c2c(N)c(C#N)c(-c3ccccc3)c(-c3ccccc3)c2C1=O	> 100 µM
9. COc1ccc(-c2nc3ccccc3c(=O)[nH]2)c(OC)c1	> 100 µM
